method.description: qHTS of pediatric cancer cell lines to identify multiple opportunities for drug repurposing: Confirmatory screen for A673 cells (AID 1347110);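 further: cells exposed to compound for 48 h before the viability read; nearly all actives have a fitted effect of over 65% in size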
measurement.context: A673 Ewing sarcoma cell viability; series mostly up to 45.9 µM
Results filed as inconclusive are left out. Calls of active or inactive are those of the source. The call rests on the fitted dose curve; in most records, active means well fitted cell-killing curve with a large enough effect; inconclusive means small, poorly fitted or top-dose-only effect; inactive means flat fitted curve, though single readings scatter.
Labels: Y (active), N (inactive)

- compound: "CC(C)n1c(C=C[C@H](O)C[C@H](O)CC(=O)O)c(-c2ccc(F)cc2)c2ccccc21"
  label: "Y"
- compound: "CC1(C)CC(=O)c2c(C(F)(F)F)nn(-c3ccc(C(N)=O)c(NC4CCC(O)CC4)c3)c2C1 (stereo not drawn)"
  label: "Y"
- compound: "CCN(CCO)CCCOc1ccc2c(Nc3cc(CC(=O)Nc4cccc(F)c4)[nH]n3)ncnc2c1"
  label: "Y"
- compound: "Cc1ccc(S(=O)(=O)Nc2nc3ccccc3nc2Nc2ccc3nsnc3c2)cc1"
  label: "N"
- compound: "CC1C(=O)OC2C(O)C34C5CC(C(C)(C)C)C36C(OC(=O)C6O)OC4(C(=O)O5)C12O (stereo not drawn)"
  label: "Y"
- compound: "CCNC(=O)c1noc(-c2cc(C(C)C)c(O)cc2O)c1-c1ccc(CN2CCOCC2)cc1"
  label: "Y"
- compound: "CCCC1OC2C[C@@H]3[C@H]4CCC5=CC(=O)C=C[C@]5(C)[C@H]4C(O)C[C@]3(C)[C@]2(C(=O)CO)O1 (stereo partly drawn)"
  label: "N"
- compound: "CN(C)CCN(C)C(=O)c1ccc(NC(=O)Nc2ccc(-c3nc(N4CCOCC4)c4ccn(CC(F)(F)F)c4n3)cc2)cc1"
  label: "Y"
- compound: "CC1(COc2ccc3c(c2)ncn3-c2ccc3cccc(N4CCC(N)CC4)c3n2)COC1"
  label: "Y"
- compound: "Cc1ccc(C(=O)N(CCCN)[C@@H](c2oc3cc(Cl)ccc3c(=O)c2Cc2ccccc2)C(C)C)cc1"
  label: "Y"
- compound: "CCC[C@H](Nc1nc(-c2ccc(NC(=O)NCC)c(OC)c2)ncc1C)c1cccnc1"
  label: "Y"
- compound: "Nc1[nH]nc2nnc(-c3c(-c4ccccc4)nn4ccccc34)cc12"
  label: "Y"
- compound: "COC(=O)[C@H](c1ccccc1Cl)N1CCc2sccc2C1"
  label: "N"

====

method.description: High-throughput drug toxicity screening in the BPDCN cell line Cal-1 (AID 1224825);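 further: cells exposed to compounds for 48 h; 100% = DMSO and 0% = bortezomib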
measurement.context: Cal-1 BPDCN cell viability, qHTS; at 45.8 µM (top of the series) unless noted
Description: Blastic plasmacytoid dendritic cell neoplasm (BPDCN) is a rare, aggressive and largely incurable hematologic malignancy originating from plasmacytoid dendritic cells (pDCs). Although an initial response to chemotherapy is common, BPDCN prognosis is extremely poor and most patients relapse with drug-resistant disease leading to a median overall survival of ~1 year after diagnosis. […]
This section presents compounds with their documented viability (% of control) values.
parameter: viability (% of control) (%)

- compound: "Cc1csc(-c2nnc(Nc3ccc(Oc4ncccc4-c4ccnc(N)n4)cc3)c3ccccc23)c1"
  result.units: "%"
  observed.result: 13.3
- compound: "CCOC(=O)[C@@H](N)CCC(=O)N[C@@H](CSCc1ccccc1)C(=O)N[C@@H](C(=O)OCC)c1ccccc1"
  result.units: "%"
  observed.result: 90.7
- compound: "CCC(=O)N1CCN(c2ccc(-n3c(=O)ccc4cnc5ccc(-c6cnc7ccccc7c6)cc5c43)cc2C(F)(F)F)CC1"
  result.units: "%"
  observed.result: 20.2
- compound: "Cc1cc2nc3c(=O)[nH]c(=O)nc-3n(CC(O)C(O)C(O)CO)c2cc1C (stereo not drawn)"
  result.units: "%"
  observed.result: 101
- compound: "O=C(O)c1ccc(O)c2ncc(N3CCOCC3)cc12"
  result.units: "%"
  observed.result: 100
- compound: "N#CC(c1ccnc(NCCc2cccnc2)n1)c1nc2ccccc2s1 (stereo not drawn)"
  result.units: "%"
  observed.result: 3.4
- compound: "CC(O)=C(C#N)C(=O)Nc1ccc(C(F)(F)F)cc1"
  result.units: "%"
  observed.result: 81.4
